Measured values drawn from patent US20190255048A1 for this set.

Test system: mouse TEL-BaF3-FLT3-D835Y (stably expressing FLT3D835Y mutant activated kinase)
assay: Effects on proliferation of cells (Cell Titer-Glo), TEL-BaF3-FLT3-D835Y
Type: cell-based
test context: incubated for 72 hours
measure: IC50 (µM)

a = CC(O)C(=O)O.Nc1sc(-c2c(F)cccc2F)nc1C(=O)Nc1cncnc1OCC1CCNCC1 [Lactate of compound of Formula (I)]
b = Br.Nc1sc(-c2c(F)cccc2F)nc1C(=O)Nc1cncnc1OCC1CCNCC1 [Hydrobromide of compound of Formula (I)]
Q. Select one. Lower IC50: a or b Please reply using the label of the selected record.
A. a

====

System: mouse TEL-BaF3-FLT3/ITD (stably expressing FLT3/ITD mutant activated kinase)
assay: Effects on proliferation of cells (Cell Titer-Glo), TEL-BaF3-FLT3/ITD
Assay type: cell-based
test context: Mus musculus, incubated for 72 hours
measure: IC50 (µM)
Number only, in µM; omit the unit.

Value of IC50 reported for the molecule Nc1sc(-c2c(F)cccc2F)nc1C(=O)Nc1cncnc1OCC1CCNCC1 is 0.11

====

System: mouse TEL-BaF3-FLT3-D835Y (stably expressing FLT3D835Y mutant activated kinase)
assay: Effects on proliferation of cells (Cell Titer-Glo), TEL-BaF3-FLT3-D835Y
Format: cell-based
test context: incubated for 72 hours
measure: IC50 (µM)

get_value(item= CS(=O)(=O)O.Nc1sc(-c2c(F)cccc2F)nc1C(=O)Nc1cncnc1OCC1CCNCC1 [Mesylate of compound of Formula (I)] , readout=IC50) returns 0.31

I = CC(=O)O.Nc1sc(-c2c(F)cccc2F)nc1C(=O)Nc1cncnc1OCC1CCNCC1 [Acetate of compound of Formula (I)]
II = Cl.Nc1sc(-c2c(F)cccc2F)nc1C(=O)Nc1cncnc1OCC1CCNCC1 [Hydrochloride salt of compound of Formula (I)]
Q. # min-compare on IC50 between I and II Returns: label corresponding to the selected item.
A. II
(II: 0.21 µM, I: 0.32 µM)

====

assay target: FLT3 kinase (Homo sapiens)
Sequence (P36888 27-993): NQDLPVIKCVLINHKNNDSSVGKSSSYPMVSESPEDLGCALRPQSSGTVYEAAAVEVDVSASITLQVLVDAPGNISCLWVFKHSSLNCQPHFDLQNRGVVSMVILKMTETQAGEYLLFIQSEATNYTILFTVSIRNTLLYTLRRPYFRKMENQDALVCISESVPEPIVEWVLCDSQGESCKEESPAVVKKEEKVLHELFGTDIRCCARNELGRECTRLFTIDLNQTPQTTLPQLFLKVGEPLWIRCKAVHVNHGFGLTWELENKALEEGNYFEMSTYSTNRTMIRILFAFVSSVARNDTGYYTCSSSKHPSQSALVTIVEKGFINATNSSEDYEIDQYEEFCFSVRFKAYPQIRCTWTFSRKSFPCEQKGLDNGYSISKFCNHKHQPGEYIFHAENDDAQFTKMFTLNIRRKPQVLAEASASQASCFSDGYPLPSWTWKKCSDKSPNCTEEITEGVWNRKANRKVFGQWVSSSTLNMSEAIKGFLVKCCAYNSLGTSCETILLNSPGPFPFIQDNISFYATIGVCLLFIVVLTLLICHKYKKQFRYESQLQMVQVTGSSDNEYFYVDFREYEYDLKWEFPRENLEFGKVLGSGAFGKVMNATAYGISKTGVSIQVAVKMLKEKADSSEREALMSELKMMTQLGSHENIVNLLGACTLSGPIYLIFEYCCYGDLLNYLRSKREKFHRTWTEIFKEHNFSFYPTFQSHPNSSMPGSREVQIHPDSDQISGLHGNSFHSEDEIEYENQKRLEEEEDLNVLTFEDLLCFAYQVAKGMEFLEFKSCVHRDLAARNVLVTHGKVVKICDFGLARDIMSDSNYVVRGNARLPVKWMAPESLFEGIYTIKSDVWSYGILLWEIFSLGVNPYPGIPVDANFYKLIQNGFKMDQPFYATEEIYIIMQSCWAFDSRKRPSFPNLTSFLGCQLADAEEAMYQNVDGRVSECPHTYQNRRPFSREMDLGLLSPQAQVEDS
measure: IC50 (nM)

IC50 reading for CC(=O)O.Nc1sc(-c2c(F)cccc2F)nc1C(=O)Nc1cncnc1OCC1CCNCC1 [Acetate of compound of Formula (I)] : 27

a = Cl.Nc1sc(-c2c(F)cccc2F)nc1C(=O)Nc1cncnc1OCC1CCNCC1 [Hydrochloride salt of compound of Formula (I)]
b = CS(=O)(=O)O.Nc1sc(-c2c(F)cccc2F)nc1C(=O)Nc1cncnc1OCC1CCNCC1 [Mesylate of compound of Formula (I)]
Q. Given a and given b , which shows the smaller recorded IC50? # answer = label of selected item
A. a

I = Br.Nc1sc(-c2c(F)cccc2F)nc1C(=O)Nc1cncnc1OCC1CCNCC1 [Hydrobromide of compound of Formula (I)]
II = CC(O)C(=O)O.Nc1sc(-c2c(F)cccc2F)nc1C(=O)Nc1cncnc1OCC1CCNCC1 [Lactate of compound of Formula (I)]
Q. Of the two listed items, which has the higher IC50? First: I Second: II Choose, then provide that item's label.
A. I
(I: 39 nM, II: 25 nM)

====

Test system: human acute monocytic leukemia cell strain MV4-11 (expressing FLT3/ITD mutant gene)
assay: Effects on proliferation of tumor cells (Cell Titer-Glo), MV4-11
Type: cell-based
test context: MV4-11, incubated for 72 hours
measure: IC50 (µM)

I = CC(=O)O.Nc1sc(-c2c(F)cccc2F)nc1C(=O)Nc1cncnc1OCC1CCNCC1 [Acetate of compound of Formula (I)]
II = Nc1sc(-c2c(F)cccc2F)nc1C(=O)Nc1cncnc1OCC1CCNCC1.O=S(=O)(O)O [Sulphate of compound of Formula (I)]
III = Cl.Nc1sc(-c2c(F)cccc2F)nc1C(=O)Nc1cncnc1OCC1CCNCC1 [Hydrochloride salt of compound of Formula (I)]
Q. Returns the items ordered by IC50, from maximum to minimum. Sort and list the labels as requested.
A. I, II, III
(I: 0.41 µM, II: 0.23 µM, III: 0.13 µM)

====

System: mouse TEL-BaF3-FLT3-D835Y (stably expressing FLT3D835Y mutant activated kinase)
assay: Effects on proliferation of cells (Cell Titer-Glo), TEL-BaF3-FLT3-D835Y
Assay type: cell-based
test context: Mus musculus, incubated for 72 hours
measure: IC50 (µM)
Write down the numeric answer in µM and omit the unit.

For this molecule ( Nc1sc(-c2c(F)cccc2F)nc1C(=O)Nc1cncnc1OCC1CCNCC1 ), measured IC50 is 0.32

====

System: human acute myeloid leukemia cell strain MOLM-14 (expressing FLT3/ITD mutant gene and wild-type FLT3 gene)
assay: Effects on proliferation of tumor cells (Cell Titer-Glo), MOLM-14
Assay type: cell-based
test context: MOLM-14, incubated for 72 hours
measure: IC50 (µM)

IC50 reported for this compound CS(=O)(=O)O.Nc1sc(-c2c(F)cccc2F)nc1C(=O)Nc1cncnc1OCC1CCNCC1 [Mesylate of compound of Formula (I)] : 0.13

Notebook: CC(=O)O.Nc1sc(-c2c(F)cccc2F)nc1C(=O)Nc1cncnc1OCC1CCNCC1 [Acetate of compound of Formula (I)] , IC50 read as 0.12

So for Nc1sc(-c2c(F)cccc2F)nc1C(=O)Nc1cncnc1OCC1CCNCC1.O=S(=O)(O)O [Sulphate of compound of Formula (I)] , the logged IC50 turned out to be 0.22

A = Br.Nc1sc(-c2c(F)cccc2F)nc1C(=O)Nc1cncnc1OCC1CCNCC1 [Hydrobromide of compound of Formula (I)]
B = Cl.Nc1sc(-c2c(F)cccc2F)nc1C(=O)Nc1cncnc1OCC1CCNCC1 [Hydrochloride salt of compound of Formula (I)]
C = CC(O)C(=O)O.Nc1sc(-c2c(F)cccc2F)nc1C(=O)Nc1cncnc1OCC1CCNCC1 [Lactate of compound of Formula (I)]
Q. # rank_down: sort by IC50, max first Form entry: labels listed in requested order.
A. C, A, B

====

Tested on: human acute myeloid leukemia cell strain MOLM-13 (expressing FLT3/ITD mutant gene and wild-type FLT3 gene)
assay: Effects on proliferation of tumor cells (Cell Titer-Glo), MOLM-13
Type: cell-based
test context: MOLM-13, incubated for 72 hours
measure: IC50 (µM)

molecule Br.Nc1sc(-c2c(F)cccc2F)nc1C(=O)Nc1cncnc1OCC1CCNCC1 [Hydrobromide of compound of Formula (I)] , IC50 observed: 0.51

P = Nc1sc(-c2c(F)cccc2F)nc1C(=O)Nc1cncnc1OCC1CCNCC1.O=S(=O)(O)O [Sulphate of compound of Formula (I)]
Q = CC(=O)O.Nc1sc(-c2c(F)cccc2F)nc1C(=O)Nc1cncnc1OCC1CCNCC1 [Acetate of compound of Formula (I)]
Q. Just tell me: smaller IC50 value, P or Q ? Returns: label corresponding to the selected item.
A. P
(P: 0.23 µM, Q: 0.43 µM)

====

System: human acute myeloid leukemia cell strain MOLM-13 (expressing FLT3/ITD mutant gene and wild-type FLT3 gene)
assay: Effects on proliferation of tumor cells (Cell Titer-Glo), MOLM-13
Assay type: cell-based
test context: MOLM-13, incubated for 72 hours
measure: IC50 (µM)

P = CS(=O)(=O)O.Nc1sc(-c2c(F)cccc2F)nc1C(=O)Nc1cncnc1OCC1CCNCC1 [Mesylate of compound of Formula (I)]
Q = Cl.Nc1sc(-c2c(F)cccc2F)nc1C(=O)Nc1cncnc1OCC1CCNCC1 [Hydrochloride salt of compound of Formula (I)]
R = CC(O)C(=O)O.Nc1sc(-c2c(F)cccc2F)nc1C(=O)Nc1cncnc1OCC1CCNCC1 [Lactate of compound of Formula (I)]
Q. Order the entries above by descending IC50. // respond by listing labels in the order requested
A. P, R, Q
(P: 0.45 µM, R: 0.28 µM, Q: 0.12 µM)
